Test system: HEK-293T
Test: Cytotoxicity against human HEK293T cells assessed as reduction in cell viability after 72 hrs by alamar blue assay
Format: cell-based
Conditions: hek-293t, 72 h
This section presents compounds with their documented CC50 values.
Kindly answer with a numeric value in µM, unit omitted.

Below: 2 compounds and their reported CC50.
- query_smiles: "C=C1CN(S(=O)(=O)c2ccc(C)cc2)CCCN(CC2CCCCC2)CCCN(S(=O)(=O)c2ccc(OC)cc2)C1.Cl"
  units_text: "µM"
  CC50: 1.4
- query_smiles: "C=C1CN(S(=O)(=O)c2ccc(C)cc2)CCCN(CC2CCCCC2)CCCN(S(=O)(=O)c2ccc(OCCO)cc2)C1.Cl"
  units_text: "µM"
  CC50: 15

Next compound, CC50 to be filled in.
Enter reported CC50 observed with HEK-293T for C=C1CN(S(=O)(=O)c2ccc(OC)cc2)CCCN(CC2CCCCC2)CCCN(S(=O)(=O)c2ccc(N(C)C)cc2)C1.Cl
1

###

This section presents molecules with their documented Kinetic_solubility values.
Assay: Kinetic solubility of compound at pH 7.4 PBS buffer incubated for 30 mins by nephelometry
Assay type: physicochemical
Conditions: buffer, pH 7.4, 0.5 h
Kindly answer with a numeric value in µM, unit omitted.

Recorded Kinetic_solubility of C=C1CN(S(=O)(=O)c2ccc(OC)cc2)CCCN(CC2CCCCC2)CCCN(S(=O)(=O)c2ccc(N(C)C)cc2)C1.Cl , please.
56

###

Test: Cytotoxicity against human HEK293T cells assessed as reduction in cell viability after 72 hrs by alamar blue assay
Assay type: cell-based, HEK-293T
Details: HEK293T cells
readout: CC50 at 72 h (µM)
Kindly answer with a numeric value in µM, unit omitted.

Recorded CC50 at 72 h of C=C1CN(S(=O)(=O)c2ccc(C)cc2)CCCN(CCc2ccccc2)CCCN(S(=O)(=O)c2ccc(C)cc2)C1.Cl , please.
50

###

Test: Therapeutic index, ratio of CC50 for cytotoxicity against human HEK293T cells to ratio of IC50 for Down modulation of sortilin expression in HEK293T cells tranfected with GFP-tagged sortilin incubated for 24 hrs by flow cytometric analysis
Assay type: toxicity, cell-based
Settings: read-out: TI
This section presents compounds with their documented selectivity ratio at 24 h values.

Recorded selectivity ratio at 24 h of C=C1CN(S(=O)(=O)c2ccc(C)cc2)CCCN(CCc2ccccc2)CCCN(S(=O)(=O)c2ccc(C)cc2)C1.Cl , please.
> 50

Recorded selectivity ratio at 24 h of C=C1CN(S(=O)(=O)c2ccc(N(C)C)cc2)CCCN(CC2CCCCC2)CCCN(S(=O)(=O)c2cccc3ccccc23)C1.Cl , please.
> 26

Recorded selectivity ratio at 24 h of C=C1CN(S(=O)(=O)c2ccc(C)cc2)CCc2cc(-c3ccccc3)cc(n2)CCN(S(=O)(=O)c2ccc(C)cc2)C1.Cl , please.
> 12.5

Recorded selectivity ratio at 24 h of C=C1CN(S(=O)(=O)c2ccc(C)cc2)CCCN(Cc2ccccc2)CCCN(S(=O)(=O)c2ccc(C)cc2)C1.Cl [CYCLOTRIAZADISULFONAMIDE HYDROCHLORIDE] , please.
> 23

###

This section presents molecules with their documented Kinetic_solubility values.
Test: Kinetic solubility of compound at pH 7.4 PBS buffer incubated for 30 mins by nephelometry
Type: physicochemical
Conditions: buffer, pH 7.4, 0.5 h
# output: number + unit

Below: 3 molecules and their reported Kinetic_solubility.
- query_smiles: "C=C1CN(S(=O)(=O)c2ccc(C)cc2)CCCN(CC2CCCCC2)CCCN(S(=O)(=O)c2ccc(OCCO)cc2)C1.Cl"
  Kinetic_solubility: "59 µM"
- query_smiles: "C=C1CN(S(=O)(=O)c2ccc(C)cc2)CCCN(CCc2ccccc2)CCCN(S(=O)(=O)c2ccc(C)cc2)C1.Cl"
  Kinetic_solubility: "55 µM"
- query_smiles: "C=C1CN(S(=O)(=O)c2ccc(C)cc2)CCCN(CC2CCCCC2)CCCN(S(=O)(=O)c2ccc(OC)cc2)C1.Cl"
  Kinetic_solubility: "57 µM"

Next molecule, Kinetic_solubility to be filled in.
Recorded Kinetic_solubility of C=C1CN(S(=O)(=O)c2ccc(N(C)C)cc2)CCCN(CC2CCCCC2)CCCN(S(=O)(=O)c2cccc3ccccc23)C1.Cl , please.
60 µM
